Item-by-item account of inflam muscle
Tested on: rat inflammation model (E. coli, left hindleg)
Test: Biodistribution and imaging of Tc-99m labelled conjugates in a rat inflammation model
Settings: inflamed muscle (left leg); Time 35 min
Where no end group is shown, it is not given here. The star is where a group is joined. Bz‑MA = benzoylmercaptoacetyl chelator, O=C(SCC(=O)*)c1ccccc1; Picolinoyl = O=C(c1ccccn1)*; Acm = CC(=O)NC*
Answer with a number only, understood to be in % dose/g.

Below: 3 substances and their reported inflam muscle.
PicSerCys(Acm) Gly TKPRTKPR: chelator PicSerCys(Acm), linking group Gly, peptide TKPRTKPR (tuftsin dimer, Seq ID no: 10); comparison conjugate ({Picolinoyl-Ser-Cys(Acm)}-GTKPRTKPR) = 0.071
PicSerCys(Acm) Gly RTKPR: chelator PicSerCys(Acm), linking group Gly, peptide RTKPR (Seq ID no: 11); comparison conjugate ({Picolinoyl-Ser-Cys(Acm)}-GRTKPR) = 0.099
Bz-MA-Ser-Cys-Ser-Gly-Asp-Gly-TKPPR ({Bz‑MA}-SCSGDGTKPPR) [BzMASerCys SGDG- TKPPR] = 0.226

-- ask # returns recorded inflam muscle (system: rat inflammation model (E. coli, left hindleg)) for Pic-Ser-Cys(Acm)-Gly-Asp-Gly-TKPPR (Picolinoyl-SC(Acm)GDGTKPPR) [PicSerCys(Acm) GDG TKPPR]
-- reply 0.166

---

# Lookup of reported Blood keyed by entry
Tested on: rat inflammation model (E. coli, left hindleg)
Assay: Biodistribution and imaging of Tc-99m labelled conjugates in a rat inflammation model
Conditions: Tc-99m labelled conjugate i.v.; Time 35 min
Where no end group is shown, it is not given here. The star is where a group is joined. Bz‑MA = benzoylmercaptoacetyl chelator, O=C(SCC(=O)*)c1ccccc1; Picolinoyl = O=C(c1ccccn1)*; Acm = CC(=O)NC*
Unit % dose/g implied. Number only.

Record excerpt, results attached:
Pic-Ser-Cys(Acm)-Gly-Asp-Gly-TKPPR (Picolinoyl-SC(Acm)GDGTKPPR) [PicSerCys(Acm) GDG TKPPR] = 0.228
PicSerCys(Acm) Gly TKPRTKPR: chelator PicSerCys(Acm), linking group Gly, peptide TKPRTKPR (tuftsin dimer, Seq ID no: 10); comparison conjugate ({Picolinoyl-Ser-Cys(Acm)}-GTKPRTKPR) = 0.136
PicSerCys(Acm) Gly RTKPR: chelator PicSerCys(Acm), linking group Gly, peptide RTKPR (Seq ID no: 11); comparison conjugate ({Picolinoyl-Ser-Cys(Acm)}-GRTKPR) = 0.169

-- ask Would you mind telling me what Blood value was observed for Bz-MA-Ser-Cys-Ser-Gly-Asp-Gly-TKPPR ({Bz‑MA}-SCSGDGTKPPR) [BzMASerCys SGDG- TKPPR] ?
-- reply 0.483

---

Tested on: rat inflammation model (E. coli, left hindleg)
Assay: Biodistribution and imaging of Tc-99m labelled conjugates in a rat inflammation model
Settings: non-inflamed muscle (right leg); Time 35 min
Where no end group is shown, it is not given here. The star is where a group is joined. Bz‑MA = benzoylmercaptoacetyl chelator, O=C(SCC(=O)*)c1ccccc1; Picolinoyl = O=C(c1ccccn1)*; Acm = CC(=O)NC*
outcome.measure: Uninfl muscle (% dose/g)
Entry rule: numbers only, all in % dose/g.

Pic-Ser-Cys(Acm)-Gly-Asp-Gly-TKPPR (Picolinoyl-SC(Acm)GDGTKPPR) [PicSerCys(Acm) GDG TKPPR] = 0.034
PicSerCys(Acm) Gly TKPRTKPR: chelator PicSerCys(Acm), linking group Gly, peptide TKPRTKPR (tuftsin dimer, Seq ID no: 10); comparison conjugate ({Picolinoyl-Ser-Cys(Acm)}-GTKPRTKPR) = 0.022
Bz-MA-Ser-Cys-Ser-Gly-Asp-Gly-TKPPR ({Bz‑MA}-SCSGDGTKPPR) [BzMASerCys SGDG- TKPPR] = 0.057

Now consider a different substance.
-- ask Which Uninfl muscle value is on record for PicSerCys(Acm) Gly RTKPR: chelator PicSerCys(Acm), linking group Gly, peptide RTKPR (Seq ID no: 11); comparison conjugate ({Picolinoyl-Ser-Cys(Acm)}-GRTKPR) ?
-- reply 0.033
